- target: Zinc finger protein mex-5 (Caenorhabditis elegans, UniProt Q9XUB2)
- Sequence (Q9XUB2 whole entry): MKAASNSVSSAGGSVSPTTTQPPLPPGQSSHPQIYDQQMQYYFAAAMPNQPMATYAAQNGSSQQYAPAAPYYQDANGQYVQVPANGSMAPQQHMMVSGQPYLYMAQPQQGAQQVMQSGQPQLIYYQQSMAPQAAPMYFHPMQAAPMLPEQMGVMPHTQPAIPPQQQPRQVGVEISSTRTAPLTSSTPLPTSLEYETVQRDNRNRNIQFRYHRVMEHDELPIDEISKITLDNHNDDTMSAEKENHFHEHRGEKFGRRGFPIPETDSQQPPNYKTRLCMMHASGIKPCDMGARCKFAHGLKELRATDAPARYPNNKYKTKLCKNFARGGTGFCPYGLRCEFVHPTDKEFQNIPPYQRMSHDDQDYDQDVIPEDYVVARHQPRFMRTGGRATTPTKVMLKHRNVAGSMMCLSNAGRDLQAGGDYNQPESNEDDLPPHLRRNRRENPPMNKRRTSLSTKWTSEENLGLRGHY
- method-description: MEX-5/TCR-2 RNA interaction inhibitors, dose response, biochemical, C. elegans, fluorescence polarization (AID 1960)
experimental-endpoint: EC50

Check out these entries, answers already filled in.
1) COc1ccc(/C=C2\CCCC(C(=O)C(F)(F)F)=C2O)cc1OC | 254 µM (inconclusive)
2) CC1(C)CC(=O)C2=C(C1)OC(N)=C(C#N)C21C(=O)N2CCCc3cccc1c32 (stereo not drawn) | > 300 µM (not active)

(Q) Return reported EC50. Input molecule: Cc1n[nH]c(O)c1/C=N/N1CCOCC1
(A) > 300 µM (not active)
